test system: PvdQ acylase [Pseudomonas aeruginosa LESB58]; test: P. aeruginosa PvdQ acylase inhibitors, primary screen, biochemical, fluorescence, plate reader and imaging, single point (AID 488965); details: purified PvdQ acylase, at 10 µM, stronger effect = higher value;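 further: 0% = vehicle neutral wells and 100% = reference inhibitor wells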
Screen size: about 340,000 compounds; about 210 (0.062%) were called active. The entries come from a sample that favours actives as a whole.
# cutoff -10% applies to inhibition; >= gives label 1, < gives label 0

>  <Compound>
COc1ccccc1N1CCN(C(=O)CCS(=O)(=O)c2ccc3c(c2)NC(=O)C(C)S3)CC1 (stereo not drawn)

>  <Assay target>
PvdQ acylase [Pseudomonas aeruginosa LESB58]

>  <Assigned category>
label 0

$$$$
>  <Compound>
CCc1ccc(CNC(=O)C2CCN(c3nnc(C)c4c(C)n(-c5ccc(C)cc5)nc34)CC2)cc1

>  <Assay target>
PvdQ acylase [Pseudomonas aeruginosa LESB58]

>  <Assigned category>
label 1

$$$$
>  <Compound>
Cc1csc(NC(=O)Nc2ccccc2[N+](=O)[O-])n1

>  <Assay target>
PvdQ acylase [Pseudomonas aeruginosa LESB58]

>  <Assigned category>
label 1

$$$$
>  <Compound>
O=C(Nc1ccc(F)cc1)c1cccnc1N1CCOCC1

>  <Assay target>
PvdQ acylase [Pseudomonas aeruginosa LESB58]

>  <Assigned category>
label 1

$$$$
>  <Compound>
CCOC(=O)N1CCC(=NNC(N)=O)CC1

>  <Assay target>
PvdQ acylase [Pseudomonas aeruginosa LESB58]

>  <Assigned category>
label 1

$$$$
>  <Compound>
C/C=N/N(c1ccccc1)c1ccccc1

>  <Assay target>
PvdQ acylase [Pseudomonas aeruginosa LESB58]

>  <Assigned category>
label 0

$$$$
>  <Compound>
COc1ccc(S(=O)(=O)N2C[C@H]3CON(C)[C@H]3C[C@H]2c2cccc(Br)c2)cc1

>  <Assay target>
PvdQ acylase [Pseudomonas aeruginosa LESB58]

>  <Assigned category>
label 1

$$$$
>  <Compound>
Cc1ccc(CN2CC(C(=O)N3CCN(S(=O)(=O)c4ccccc4)CC3)CC2=O)cc1 (stereo not drawn)

>  <Assay target>
PvdQ acylase [Pseudomonas aeruginosa LESB58]

>  <Assigned category>
label 0

$$$$
>  <Compound>
Cc1nnc(SC(C)C(=O)Nc2ccc(S(=O)(=O)NC3CCCCC3)cc2)s1 (stereo not drawn)

>  <Assay target>
PvdQ acylase [Pseudomonas aeruginosa LESB58]

>  <Assigned category>
label 1

$$$$
>  <Compound>
CCOC(=O)N1CCN(Cc2nc3ccc([N+](=O)[O-])cc3c(=O)n2-c2cccc(OC)c2)CC1

>  <Assay target>
PvdQ acylase [Pseudomonas aeruginosa LESB58]

>  <Assigned category>
label 1

$$$$
>  <Compound>
CN1CCN(CC(O)COCc2ccc3c(c2)OCO3)CC1 (stereo not drawn)

>  <Assay target>
PvdQ acylase [Pseudomonas aeruginosa LESB58]

>  <Assigned category>
label 1

$$$$
>  <Compound>
CC(C)=CCC/C(C)=C/C(=O)O

>  <Assay target>
PvdQ acylase [Pseudomonas aeruginosa LESB58]

>  <Assigned category>
label 1

$$$$
>  <Compound>
OCCn1c(-c2ccccc2)csc1=Nc1ccccc1

>  <Assay target>
PvdQ acylase [Pseudomonas aeruginosa LESB58]

>  <Assigned category>
label 0

$$$$
>  <Compound>
CCCCNC(=O)N1CCCC(N(C)CCc2ccc(OC)c(OC)c2)C1 (stereo not drawn)

>  <Assay target>
PvdQ acylase [Pseudomonas aeruginosa LESB58]

>  <Assigned category>
label 0

$$$$
>  <Compound>
CCOc1ccc(/C(O)=C2/C(=O)C(=O)N(Cc3cccnc3)C2c2ccc(N(C)C)cc2)c(C)c1 (stereo not drawn)

>  <Assay target>
PvdQ acylase [Pseudomonas aeruginosa LESB58]

>  <Assigned category>
label 1

$$$$
>  <Compound>
CC1CCCCC1NCC(=O)Nc1ccccc1C(=O)Nc1ccccc1 (stereo not drawn)

>  <Assay target>
PvdQ acylase [Pseudomonas aeruginosa LESB58]

>  <Assigned category>
label 1

$$$$
>  <Compound>
CCC(C(=O)NC1CCCC1)N(C(=O)Cn1nnc(-c2ccc(C)o2)n1)c1ccc(OC)c(OC)c1 (stereo not drawn)

>  <Assay target>
PvdQ acylase [Pseudomonas aeruginosa LESB58]

>  <Assigned category>
label 1

$$$$
>  <Compound>
c1cc(-n2cnnn2)ccc1NC1=NCCC1

>  <Assay target>
PvdQ acylase [Pseudomonas aeruginosa LESB58]

>  <Assigned category>
label 0

$$$$
>  <Compound>
O=C(CSc1nnc(-c2cccnc2)n1CCc1ccccc1)NCc1ccccc1

>  <Assay target>
PvdQ acylase [Pseudomonas aeruginosa LESB58]

>  <Assigned category>
label 0

$$$$
>  <Compound>
CN1C(C(=O)NCc2ccco2)CC2Cn3c(nc4ccccc43)C21 (stereo not drawn)

>  <Assay target>
PvdQ acylase [Pseudomonas aeruginosa LESB58]

>  <Assigned category>
label 1

$$$$
>  <Compound>
Cc1cc(NC(=O)c2ccccc2C)no1

>  <Assay target>
PvdQ acylase [Pseudomonas aeruginosa LESB58]

>  <Assigned category>
label 1

$$$$
>  <Compound>
Cc1cc(Nc2ccc(Br)cc2F)n2ncnc2n1

>  <Assay target>
PvdQ acylase [Pseudomonas aeruginosa LESB58]

>  <Assigned category>
label 1

$$$$
